Sourced from patent US20220363770A1

- measurement_target: T1, human CGRP receptor extracellular domain (ECD) (human, UniProt Q16602 23-138; O60894 27-117)
- T1 construct: also called CGRP receptor ECD; human CGRP receptor ECD
- T1 sequence (Q16602 23-138 limits assumed, chain 1 of 2): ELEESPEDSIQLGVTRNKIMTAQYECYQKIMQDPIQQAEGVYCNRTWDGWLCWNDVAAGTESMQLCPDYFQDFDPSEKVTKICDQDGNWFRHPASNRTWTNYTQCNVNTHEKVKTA
- T1 sequence (O60894 27-117 limits assumed, chain 2 of 2): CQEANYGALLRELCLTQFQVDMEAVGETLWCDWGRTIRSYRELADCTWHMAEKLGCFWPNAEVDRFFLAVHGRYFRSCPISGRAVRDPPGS
- protocol_text: yeast-displayed Fab, FACS, 10 nM human CGRP receptor ECD
endpoint: Normalized Binding Signal/Display Signal (B/D) (ratio)

binder | recorded_result
anti-CGRP receptor variant 02, yeast-displayed Fab (Fab, V domains shown, also called Variant Ab ID 02) VH: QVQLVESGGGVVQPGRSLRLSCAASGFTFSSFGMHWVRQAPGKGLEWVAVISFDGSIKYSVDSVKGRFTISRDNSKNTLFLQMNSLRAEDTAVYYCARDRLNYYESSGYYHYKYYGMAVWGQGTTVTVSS VL: QSVLTQPPSVSAAPGQKVTISCSGSRSNIGIKAVSWYQQLPGTAPKLLIYDNNKRPSGIPDRFSGSKSGTSATLGITGLQTGDEADYYCGTWDSRLSAVVFGGGTKLTVLG | 0.58
anti-CGRP receptor variant 15, yeast-displayed Fab (Fab, V domains shown, also called Variant Ab ID 15) VH: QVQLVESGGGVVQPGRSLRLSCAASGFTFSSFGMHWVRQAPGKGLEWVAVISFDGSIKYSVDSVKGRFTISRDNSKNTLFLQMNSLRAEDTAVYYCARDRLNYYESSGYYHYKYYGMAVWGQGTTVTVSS VL: QSVLTQPPSVSAAPGQKVTISCSGSSSNIGNNYVSWYQQLPGTAPKLLIYDNNKRPSGIPDRFSGSKSGTSATLGITGLQTGDEADYYCGTWDWWRKAVIFGGGTKLTVLG | 0.42
anti-CGRP receptor variant 08, yeast-displayed Fab (Fab, V domains shown, also called Variant Ab ID 08) VH: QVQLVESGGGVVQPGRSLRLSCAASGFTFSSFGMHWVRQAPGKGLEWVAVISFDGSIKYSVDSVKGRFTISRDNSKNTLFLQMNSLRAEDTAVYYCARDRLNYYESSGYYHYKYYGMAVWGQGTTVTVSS VL: QSVLTQPPSVSAAPGQKVTISCSGSYSNIGWWPVSWYQQLPGTAPKLLIYDNNKRPSGIPDRFSGSKSGTSATLGITGLQTGDEADYYCGTWDSRLSAVVFGGGTKLTVLG | 0.48
anti-CGRP receptor variant 01, yeast-displayed Fab (Fab, V domains shown, also called Variant Ab ID 01) VH: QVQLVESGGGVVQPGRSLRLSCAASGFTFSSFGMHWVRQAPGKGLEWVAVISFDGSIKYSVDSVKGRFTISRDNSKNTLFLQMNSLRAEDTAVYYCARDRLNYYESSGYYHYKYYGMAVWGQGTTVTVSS VL: QSVLTQPPSVSAAPGQKVTISCSGSYSNIGRYSVSWYQQLPGTAPKLLIYDNNKRPSGIPDRFSGSKSGTSATLGITGLQTGDEADYYCGTWDSRLSAVVFGGGTKLTVLG | 0.89
anti-CGRP receptor variant 04, yeast-displayed Fab (Fab, V domains shown, also called Variant Ab ID 04) VH: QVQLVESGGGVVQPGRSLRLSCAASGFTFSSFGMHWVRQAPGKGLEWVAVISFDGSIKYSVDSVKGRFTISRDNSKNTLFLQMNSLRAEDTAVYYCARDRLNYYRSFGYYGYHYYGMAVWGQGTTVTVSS VL: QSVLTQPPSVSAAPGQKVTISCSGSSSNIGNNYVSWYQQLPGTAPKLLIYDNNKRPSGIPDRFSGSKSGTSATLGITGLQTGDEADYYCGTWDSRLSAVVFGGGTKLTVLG | 0.53
